# assay target: T1, AAV8 (adeno-associated virus 8, Assembled 60-mer capsid of VP1/VP2/VP3 (nested products of one cap gene), amine-coupled to a CM5 chip; the letters give one VP1 subunit only.)
# T1 construct: also called adeno-associated virus serotype 8
# T1 chain: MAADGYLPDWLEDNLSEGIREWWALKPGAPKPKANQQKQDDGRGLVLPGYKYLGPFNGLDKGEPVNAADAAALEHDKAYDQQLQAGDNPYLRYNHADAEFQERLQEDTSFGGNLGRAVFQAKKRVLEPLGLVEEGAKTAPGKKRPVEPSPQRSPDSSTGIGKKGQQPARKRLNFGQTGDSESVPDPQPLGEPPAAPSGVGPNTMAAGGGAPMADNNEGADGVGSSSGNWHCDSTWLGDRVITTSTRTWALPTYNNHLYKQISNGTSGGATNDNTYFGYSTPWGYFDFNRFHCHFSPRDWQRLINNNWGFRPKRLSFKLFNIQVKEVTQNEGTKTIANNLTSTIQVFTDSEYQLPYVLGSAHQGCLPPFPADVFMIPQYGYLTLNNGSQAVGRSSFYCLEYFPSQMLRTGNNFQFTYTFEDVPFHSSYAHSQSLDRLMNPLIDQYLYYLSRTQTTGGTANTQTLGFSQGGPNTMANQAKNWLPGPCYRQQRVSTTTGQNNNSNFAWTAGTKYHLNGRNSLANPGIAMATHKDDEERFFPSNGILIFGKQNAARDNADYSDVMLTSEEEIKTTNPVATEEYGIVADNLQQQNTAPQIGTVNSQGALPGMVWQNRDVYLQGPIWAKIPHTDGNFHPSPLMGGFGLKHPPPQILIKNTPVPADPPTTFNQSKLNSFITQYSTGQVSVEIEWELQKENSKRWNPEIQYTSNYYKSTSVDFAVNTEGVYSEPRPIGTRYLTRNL
# assay explanation: SPR, AAV amine-coupled to CM5 chip
parameter measured: koff (s⁻¹)

INSERT INTO results (binder, endpoint_unit, result_number) VALUES
  ('A4-C5 (bispecific antibody) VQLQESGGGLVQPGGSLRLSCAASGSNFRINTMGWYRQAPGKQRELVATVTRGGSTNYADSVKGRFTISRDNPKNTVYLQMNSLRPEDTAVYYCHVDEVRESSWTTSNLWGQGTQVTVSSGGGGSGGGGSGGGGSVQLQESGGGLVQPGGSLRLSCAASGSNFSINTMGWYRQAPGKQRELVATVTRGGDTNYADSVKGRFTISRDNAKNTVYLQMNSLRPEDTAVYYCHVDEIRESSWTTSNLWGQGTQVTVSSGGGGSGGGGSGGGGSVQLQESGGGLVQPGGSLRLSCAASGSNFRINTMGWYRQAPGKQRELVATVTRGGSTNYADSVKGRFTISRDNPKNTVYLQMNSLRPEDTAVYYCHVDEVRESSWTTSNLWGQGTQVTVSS', 's⁻¹', 0.00091),
  ('A4-C7 (bispecific antibody) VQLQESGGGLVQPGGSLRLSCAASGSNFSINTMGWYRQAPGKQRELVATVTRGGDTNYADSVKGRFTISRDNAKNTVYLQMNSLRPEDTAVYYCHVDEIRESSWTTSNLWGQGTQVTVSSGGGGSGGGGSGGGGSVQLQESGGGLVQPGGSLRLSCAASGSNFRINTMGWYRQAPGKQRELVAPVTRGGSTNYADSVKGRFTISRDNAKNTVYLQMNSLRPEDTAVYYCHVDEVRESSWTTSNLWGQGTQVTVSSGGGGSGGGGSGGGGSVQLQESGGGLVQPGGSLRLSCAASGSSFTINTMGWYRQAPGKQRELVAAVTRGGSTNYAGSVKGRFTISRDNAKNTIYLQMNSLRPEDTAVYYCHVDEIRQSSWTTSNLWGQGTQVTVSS', 's⁻¹', 0.00047),
  ('A4-C8 (bispecific antibody) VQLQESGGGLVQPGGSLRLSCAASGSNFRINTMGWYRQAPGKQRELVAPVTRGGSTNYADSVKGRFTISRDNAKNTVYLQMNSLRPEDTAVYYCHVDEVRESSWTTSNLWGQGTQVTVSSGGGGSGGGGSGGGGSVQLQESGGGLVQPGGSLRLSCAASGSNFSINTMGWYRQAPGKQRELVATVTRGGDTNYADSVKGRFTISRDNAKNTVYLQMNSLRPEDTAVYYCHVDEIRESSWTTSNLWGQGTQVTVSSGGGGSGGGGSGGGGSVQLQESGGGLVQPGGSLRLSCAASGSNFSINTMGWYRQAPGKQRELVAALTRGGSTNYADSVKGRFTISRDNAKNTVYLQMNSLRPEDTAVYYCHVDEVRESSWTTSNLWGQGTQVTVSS', 's⁻¹', 0.00037),
  ('A4-B2 (bispecific antibody) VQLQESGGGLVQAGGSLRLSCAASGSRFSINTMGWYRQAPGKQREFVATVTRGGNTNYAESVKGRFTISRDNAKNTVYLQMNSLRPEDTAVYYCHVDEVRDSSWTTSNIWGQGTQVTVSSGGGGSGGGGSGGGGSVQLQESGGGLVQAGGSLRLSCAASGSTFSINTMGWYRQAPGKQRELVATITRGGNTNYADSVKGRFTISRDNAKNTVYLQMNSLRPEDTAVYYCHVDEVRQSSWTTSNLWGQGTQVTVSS', 's⁻¹', 0.00014);

From: patent US20260062463A1
